We begin with a simple list: items and their reported speed of sound.
# conditionSet: 313.15 K; 100 kPa; Liquid; Frequency=2 MHz; Linear variable-path acoustic interferometer
readoutLabel: speed of sound (m/s)

{"molecule": "CCO [ethanol]", "readoutLabel": "speed of sound", "valueMeasured": 1094}
{"molecule": "Cc1cccc(O)c1 [3-methylphenol]", "readoutLabel": "speed of sound", "valueMeasured": 1436.1}
{"molecule": "Cc1ccc(O)cc1 [4-methylphenol]", "readoutLabel": "speed of sound", "valueMeasured": 1440.2}
{"molecule": "Cc1ccccc1O [2-methylphenol]", "readoutLabel": "speed of sound", "valueMeasured": 1453}
